Test system: Staphylococcus aureus
MEASUREMENT_PROTOCOL: Antibacterial activity against clinical isolates of methicillin-resistant Staphylococcus aureus ST10342 by broth microdilution assay
Type: functional
ATTRIBUTE_MEASURED: MIC (mg/L)
Reply numerically in mg/L, unit not repeated.

COMPOUND: COc1ccc([C@@H]2COc3c(cc(/C=C/C(=O)c4ccccc4OC)c4c3C=CC(C)(C)O4)C2)c(OC)c1
UOM: mg/L
MIC: 50

COMPOUND: COc1ccc([C@@H]2COc3c(cc(/C=C/C(=O)c4ccco4)c4c3C=CC(C)(C)O4)C2)c(OC)c1
UOM: mg/L
MIC: 12.5

COMPOUND: COc1cc(OC)c([C@@H]2COc3c(ccc4c3C=CC(C)(C)O4)C2)cc1/C=C/C(=O)c1ccccc1
UOM: mg/L
MIC: 25

COMPOUND: COc1cccc(C(=O)/C=C/c2cc([C@@H]3COc4c(ccc5c4C=CC(C)(C)O5)C3)c(OC)cc2OC)c1
UOM: mg/L
MIC: 50

COMPOUND: COc1cc(OC)c([C@@H]2COc3c(cc(/C=C/C(=O)c4ccc[nH]4)c4c3C=CC(C)(C)O4)C2)cc1/C=C/C(=O)c1ccc[nH]1
UOM: mg/L
MIC: 50

COMPOUND: COc1cccc(C(=O)/C=C/c2cc3c(c4c2OC(C)(C)C=C4)OC[C@@H](c2ccc(OC)cc2OC)C3)c1
UOM: mg/L
MIC: 25

Could you share what MIC was measured for COc1cc(OC)c([C@@H]2COc3c(cc(/C=C/C(=O)c4ccco4)c4c3C=CC(C)(C)O4)C2)cc1/C=C/C(=O)c1ccco1 , tested on Staphylococcus aureus?
50

Could you share what MIC was measured for COc1ccc(C(=O)/C=C/c2cc([C@@H]3COc4c(ccc5c4C=CC(C)(C)O5)C3)c(OC)cc2OC)c(OC)c1 , tested on Staphylococcus aureus?
25

Could you share what MIC was measured for COc1cc(OC)c([C@@H]2COc3c(ccc4c3C=CC(C)(C)O4)C2)cc1/C=C/C(=O)c1ccc[nH]1 , tested on Staphylococcus aureus?
50

Value source: ChEMBL document CHEMBL3797055
